- SYSTEM: p50 (in p50/RelA);RelA RHD (in p50/RelARHD) (Mus musculus;Mus musculus, UniProt P25799;Q04207 39-350;19-321, |)
- Sequence (P25799 39-350, chain 1 of 2): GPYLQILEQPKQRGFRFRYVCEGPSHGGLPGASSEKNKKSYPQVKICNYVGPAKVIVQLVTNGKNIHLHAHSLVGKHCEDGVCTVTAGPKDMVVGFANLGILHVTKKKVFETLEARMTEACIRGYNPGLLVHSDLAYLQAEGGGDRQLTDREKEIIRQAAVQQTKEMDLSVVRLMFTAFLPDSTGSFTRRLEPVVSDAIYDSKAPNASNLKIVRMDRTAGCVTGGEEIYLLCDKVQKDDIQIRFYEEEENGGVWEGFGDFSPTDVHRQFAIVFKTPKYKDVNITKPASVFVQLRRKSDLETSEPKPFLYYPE
- Sequence (Q04207 19-321, chain 2 of 2): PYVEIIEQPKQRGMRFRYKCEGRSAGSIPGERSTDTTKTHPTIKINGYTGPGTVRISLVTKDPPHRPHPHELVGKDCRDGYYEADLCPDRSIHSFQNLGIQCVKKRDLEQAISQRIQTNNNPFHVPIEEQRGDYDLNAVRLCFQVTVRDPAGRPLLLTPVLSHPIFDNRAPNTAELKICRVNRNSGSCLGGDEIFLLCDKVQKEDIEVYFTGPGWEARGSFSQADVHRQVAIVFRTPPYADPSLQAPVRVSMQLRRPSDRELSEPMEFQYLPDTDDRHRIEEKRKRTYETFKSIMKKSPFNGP
- PROTOCOL_DESCRIPTION: fluorescence anisotropy
MEASUREMENT_NAME: Kd (nM)
Give the number; nM is assumed, so skip it.

[Q] I have this binder here, GTAGACGTGCTCCCCCAGCACGTCTAC (structured_DNA, 5' 5AmMC6) [Random hairpin] , and I need its recorded Kd.
[A] 1500
